Target: hpol κ (Homo sapiens)
Test: TAMRA strand-displacement fluorescence assay of DNA polymerase activity
Assay type: biochemical
Conditions: IC50, 0.1 nM hpol κ, 0.5 nM DNA; 95% CI in parentheses
readout: pIC50
Hey, just a heads up that pIC50 is the negative log base 10 of the concentration in molar.

# lookup: pIC50 of Cl.[H]/N=C(\N)NN=Cc1cn(C(=O)c2cccc3ccccc23)c2ccc(Cl)cc12 [IAG-10]
6.14

###

Target: hpol κ (Homo sapiens, UniProt Q9UBT6)
Sequence (Q9UBT6 19-526): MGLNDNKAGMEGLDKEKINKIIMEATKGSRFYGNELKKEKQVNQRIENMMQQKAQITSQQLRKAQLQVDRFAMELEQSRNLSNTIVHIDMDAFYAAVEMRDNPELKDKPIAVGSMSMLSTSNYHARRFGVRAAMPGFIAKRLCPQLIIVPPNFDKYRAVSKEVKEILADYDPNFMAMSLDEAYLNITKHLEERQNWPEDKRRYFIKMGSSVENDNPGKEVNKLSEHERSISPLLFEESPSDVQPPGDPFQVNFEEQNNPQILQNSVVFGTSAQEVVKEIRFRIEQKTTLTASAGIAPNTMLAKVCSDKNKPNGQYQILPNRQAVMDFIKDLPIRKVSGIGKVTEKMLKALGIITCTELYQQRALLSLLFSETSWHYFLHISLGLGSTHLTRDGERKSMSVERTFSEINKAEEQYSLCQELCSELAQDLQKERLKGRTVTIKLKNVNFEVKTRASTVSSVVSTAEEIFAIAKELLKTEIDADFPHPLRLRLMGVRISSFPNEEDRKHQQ
Test: TAMRA strand-displacement fluorescence assay of DNA polymerase activity
Type: biochemical
Conditions: IC50, 1 nM hpol κ, 50 nM DNA, 100 μM dTTP, 1 mM MgCl2, 25 °C; mean n = 3
readout: pIC50
// pIC50: -log10(molar conc.)

Fill in: pIC50 of Cl.[H]/N=C(\N)NN=Cc1cn(C(=O)c2cccc3ccccc23)c2ccc(Cl)cc12 is ___
5.14

###

Molecular target: hpol κ (Homo sapiens)
Assay: TAMRA strand-displacement fluorescence assay of DNA polymerase activity
Format: biochemical
Details: IC50, 0.2 nM hpol κ, 1 nM DNA; 95% CI in parentheses
readout: IC50 (nM)
API: value field is a number in nM; no unit string.

Recall the recorded IC50 for Cl.[H]/N=C(\N)NN=Cc1cn(C(=O)c2cccc3ccccc23)c2ccc(Cl)cc12 [IAG-10] with hpol κ (Homo sapiens) and state it.
1100

###

Molecular target: UniProt:Q9Y253
Sequence (Q9Y253 1-437): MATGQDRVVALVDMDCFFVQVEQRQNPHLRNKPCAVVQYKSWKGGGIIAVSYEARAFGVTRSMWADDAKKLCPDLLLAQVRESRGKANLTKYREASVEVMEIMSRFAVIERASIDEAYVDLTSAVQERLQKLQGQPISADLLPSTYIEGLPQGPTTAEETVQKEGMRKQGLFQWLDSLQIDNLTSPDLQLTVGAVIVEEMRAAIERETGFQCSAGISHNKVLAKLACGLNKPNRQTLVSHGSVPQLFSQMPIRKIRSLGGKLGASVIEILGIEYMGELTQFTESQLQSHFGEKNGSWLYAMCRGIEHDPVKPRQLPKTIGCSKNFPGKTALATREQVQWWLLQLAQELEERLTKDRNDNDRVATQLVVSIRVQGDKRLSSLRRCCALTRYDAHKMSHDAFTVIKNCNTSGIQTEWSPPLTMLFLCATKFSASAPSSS
Experiment: TAMRA strand-displacement fluorescence assay of DNA polymerase activity
Assay type: biochemical
Settings: IC50, 1 nM hpol η, 50 nM DNA; 95% CI in parentheses
readout: IC50 (µM)
A number alone suffices; assume µM.

So what IC50 did Cl.[H]/N=C(\N)NN=Cc1cn(C(=O)c2cccc3ccccc23)c2ccc(Cl)cc12 [IAG-10] get with UniProt:Q9Y253?
14.3
